Every entry's value here was drawn from patent US10709784B2.

# System: Escherichia coli ATCC #25922
# test_details: Antibiotic MIC in untreated versus iron-extracted RPMI
# Format: cell-based
# test_context: Escherichia coli, ATCC25922, Untreated RPMI 0.11 μM Fe; read-out: MIC
# From the text: Test microorganisms included Pseudomonas aeruginosa strain PA01, Escherichia coli ATCC #25922 and Staphylococcus aureus ATCC #29213.
value_kind: MIC

Which MIC value is on record for "O=C(O)c1cn(C2CC2)c2cc(N3CCNCC3)c(F)cc2c1=O" ?
0.0078 µg/mL

Fill in the blank: the reported MIC of "CC1(C)S[C@@H]2[C@H](NC(=O)[C@H](N)c3ccccc3)C(=O)N2[C@H]1C(=O)O" is ____.
4 µg/mL

Given "CC(=O)O[C@H]1C[C@@]2(C)[C@@H](C[C@@H](O)[C@H]3[C@@]4(C)CC[C@@H](O)[C@@H](C)[C@@H]4CC[C@@]32C)/C1=C(\CCC=C(C)C)C(=O)O" , state its recorded MIC.
> 512 µg/mL

Which MIC is reported for this compound? "CC[C@H]1OC(=O)[C@H](C)[C@@H](O[C@H]2C[C@@](C)(OC)[C@@H](O)[C@H](C)O2)[C@H](C)[C@@H](O[C@@H]2O[C@H](C)C[C@H](N(C)C)[C@H]2O)[C@](C)(OC)C[C@@H](C)C(=O)[C@H](C)[C@@H](O)[C@]1(C)O"
> 512 µg/mL

I would be grateful if you could share the reported MIC for "C/C(=C\C(=O)OCCCCCCCCC(=O)O)C[C@@H]1OC[C@H](C[C@@H]2O[C@H]2[C@@H](C)[C@H](C)O)[C@@H](O)[C@H]1O" .
128 µg/mL

----------
# System: Staphylococcus aureus ATCC #29213
# test_details: Antibiotic MIC in untreated versus iron-extracted RPMI
# Format: cell-based
# test_context: Staphylococcus aureus, ATCC29213, Treated RPMI + 0.004 μM Fe; read-out: MIC
So I've got a bunch of molecules here, and I need their MIC values.
Please give a number only; it is taken to be in µg/mL.

Bench note: what MIC did CC1(C)S[C@@H]2[C@H](NC(=O)[C@H](N)c3ccccc3)C(=O)N2[C@H]1C(=O)O [Ampicillin] show?
0.25

Look at this molecule and give its reported MIC. C/C(=C\C(=O)OCCCCCCCCC(=O)O)C[C@@H]1OC[C@H](C[C@@H]2O[C@H]2[C@@H](C)[C@H](C)O)[C@@H](O)[C@H]1O [Mupirocin]
0.0156

Fill in: MIC of O=C(O)c1cn(C2CC2)c2cc(N3CCNCC3)c(F)cc2c1=O [Ciprofloxacin] is ___
0.25

What value of MIC has been recorded for this entry: CC(=O)O[C@H]1C[C@@]2(C)[C@@H](C[C@@H](O)[C@H]3[C@@]4(C)CC[C@@H](O)[C@@H](C)[C@@H]4CC[C@@]32C)/C1=C(\CCC=C(C)C)C(=O)O [Fusidic acid]
0.0625
